- MEASURED_ON: Albumin (Bos taurus) (UniProt P02769)
- Sequence (P02769 whole entry, looked up): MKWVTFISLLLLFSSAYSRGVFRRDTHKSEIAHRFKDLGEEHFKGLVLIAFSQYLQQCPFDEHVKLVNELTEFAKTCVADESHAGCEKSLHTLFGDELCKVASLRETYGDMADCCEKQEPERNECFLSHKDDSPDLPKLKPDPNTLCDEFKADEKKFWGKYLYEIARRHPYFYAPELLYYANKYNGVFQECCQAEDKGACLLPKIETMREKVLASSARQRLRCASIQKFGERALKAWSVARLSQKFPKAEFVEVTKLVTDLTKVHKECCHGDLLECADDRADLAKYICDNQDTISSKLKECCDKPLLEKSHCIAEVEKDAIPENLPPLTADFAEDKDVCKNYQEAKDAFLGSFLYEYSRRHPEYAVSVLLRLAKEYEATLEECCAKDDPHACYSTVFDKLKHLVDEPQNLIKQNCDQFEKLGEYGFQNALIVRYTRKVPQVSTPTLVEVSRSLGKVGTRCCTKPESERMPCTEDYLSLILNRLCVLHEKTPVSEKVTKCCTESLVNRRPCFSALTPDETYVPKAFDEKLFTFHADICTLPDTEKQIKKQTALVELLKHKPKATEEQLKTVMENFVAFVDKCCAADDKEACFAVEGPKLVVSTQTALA
- ASSAY_OVERVIEW: bovine serum albumin binders on microarray, profiling panel, artefact control for SMM control protein annotation, biochemical, small-molecule microarray, Alexa647 label, 635/667 nm fluorescence (AID 1118);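 also: score merges 667 nm emission intensity and signal-to-noise per printed compound spot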
- REPORTED_CONDITIONS: BSA-A647 binding, fluorescence 635 nm, higher = more signal
Kindly state composite z-score for each of the entries shown.
Answers are plain numbers.

>>> measured("C=CCNC(=O)[C@@H]1[C@H]2C(=O)O[C@H](c3ccccc3)[C@H](c3ccccc3)N2[C@H](c2ccc(OCCO)cc2)[C@@]12C(=O)N(C(=O)OCCOC)c1ccc(C#CCCO)cc12")
0.474
>>> measured("C=CCNC(=O)[C@@H]1[C@H]2C(=O)O[C@H](c3ccccc3)[C@H](c3ccccc3)N2[C@H](c2ccc(O)cc2)[C@@]12C(=O)Nc1ccc(C#CCC(C(=O)OC)C(=O)OC)cc12")
0.0825
>>> measured("O=C1OCCC=C[C@H]2OC34C=CCN(c5ccc(Cl)cc5)C(=O)[C@H]3N(CCCCCCO)C(=O)[C@@H]4C12 (stereo partly specified)")
-0.418
>>> measured("COc1cc(NN2C(C(O)c3ccc(I)cc3)C=CC3C(=O)N(c4ccccc4)C(=O)C32)cc(OC)c1OC (stereo unspecified)")
0.499
>>> measured("COc1ccc([Si](C)(C)[C@H]2[C@H](CCO)O[C@@]3(C(=O)N(Cc4ccc(N5C(=O)c6ccccc6Oc6ccccc65)cc4)c4ccccc43)[C@@H]2C)cc1")
-0.0162

Proceeding to the next compound to report its composite z-score.
query: Recall and state the measured composite z-score for CC(=O)NCCCC[C@@H]1NC(=O)[C@@H]2C[C@H](C(=O)NCCCCCCN)[C@H](c3cccc(OCCO)c3)N2C1=O .
result: 0.851

# credit: PubChem BioAssay
